A collection of compounds and their measured GLC
Species on record: Rattus norvegicus
Assay: Open TG-GATES - Regimen: Daily Repeat
Type: toxicity, organism-based, Sprague-Dawley
Parameters: regimen Daily Repeat, gender Male, age 6 weeks
Conditions: in vivo, po, 0 mg/kg, […], tissue Plasma, route gavage, dose level Control, time 14 day
Quantity Measured: GLC (mg/dL)

INSERT INTO results (compound, readout_number) VALUES
  ('Cn1c(=O)c2[nH]cnc2n(C)c1=O.O', 188.2),
  ('COc1ccc(Cc2nccc3cc(OC)c(OC)cc23)cc1OC', 199.6),
  ('CN(C)CCC=C1c2ccccc2CCc2ccccc21', 191.8),
  ('CC(=O)Oc1ccccc1C(=O)O', 193.6),
  ('NC(=O)N/N=C/c1ccc([N+](=O)[O-])o1', 195.4),
  ('COc1ccc2c(c1)c(CC(=O)O)c(C)n2C(=O)c1ccc(Cl)cc1', 201.2),
  ('C[C@H](CS)C(=O)N1CCC[C@H]1C(=O)O', 202.6),
  ('CCCC(CCC)C(=O)O', 231.4),
  ('Clc1ccccc1CN1CCc2sccc2C1', 215.8),
  ('CSc1ccc2c(c1)N(CCC1CCCCN1C)c1ccccc1S2 (stereo not given)', 189.8),
  ('O=C(O)c1cn(C2CC2)c2cc(N3CCNCC3)c(F)cc2c1=O', 185.6),
  ('O=C(O)c1cc(/N=N/c2ccc(S(=O)(=O)Nc3ccccn3)cc2)ccc1O', 189.8),
  ('NC(=O)N1c2ccccc2C=Cc2ccccc21 [CARBAMAZEPINE]', 207.4),
  ('CCc1cc(C(N)=S)ccn1 [ETHIONAMIDE]', 196.2),
  ('CO[C@H]1/C=C/O[C@@]2(C)Oc3c(C)c(O)c4c(O)c(c(/C=N/N5CCN(C)CC5)c(O)c4c3C2=O)NC(=O)/C(C)=C\C=C\[C@H](C)[C@H](O)[C@@H](C)[C@@H](O)[C@@H](C)[C@H](OC(C)=O)[C@@H]1C', 202.8);

----------
Organism: Rattus norvegicus
Test: Open TG-GATES - Regimen: Single
Assay type: toxicity, organism-based, Sprague-Dawley
Design: regimen Single, gender Male, age 6 weeks
Conditions: in vivo, po, 1000 mg/kg, 6 h, tissue Blood, route gavage, dose level High
Recorded WBC, one value per entry.
Quantity Measured: WBC (x10_2/uL)

INSERT INTO measurements (molecule, endpoint_unit, readout_number) VALUES
  ('Clc1ccccc1CN1CCc2sccc2C1 [TICLOPIDINE]', 'x10_2/uL', 69.6),
  ('C[C@H](CS)C(=O)N1CCC[C@H]1C(=O)O [CAPTOPRIL]', 'x10_2/uL', 110.9),
  ('CCc1cc(C(N)=S)ccn1 [ETHIONAMIDE]', 'x10_2/uL', 98.1),
  ('O=C(O)c1cn(C2CC2)c2cc(N3CCNCC3)c(F)cc2c1=O [CIPROFLOXACIN]', 'x10_2/uL', 97.6),
  ('O=C(O)c1cc(/N=N/c2ccc(S(=O)(=O)Nc3ccccn3)cc2)ccc1O [SULFASALAZINE]', 'x10_2/uL', 73.5);

----------
Consider the following compounds and their measured Neu readings.
Species: Rattus norvegicus
Assay: Open TG-GATES - Regimen: Single
Type: toxicity, organism-based, Sprague-Dawley
Design: regimen Single, gender Male, age 6 weeks
Settings: in vivo, po, 300 mg/kg, 3 h, tissue Blood, route gavage, dose level Middle
Quantity Measured: Neu

INSERT INTO measurements (compound, quantity_measured, result) VALUES
  ('C[C@H](CS)C(=O)N1CCC[C@H]1C(=O)O', 'Neu', '10%'),
  ('CCc1cc(C(N)=S)ccn1 [ETHIONAMIDE]', 'Neu', '15.4%'),
  ('O=C(O)c1cn(C2CC2)c2cc(N3CCNCC3)c(F)cc2c1=O', 'Neu', '14.2%'),
  ('Clc1ccccc1CN1CCc2sccc2C1', 'Neu', '21.6%'),
  ('O=C(O)c1cc(/N=N/c2ccc(S(=O)(=O)Nc3ccccn3)cc2)ccc1O', 'Neu', '16.2%');
